Assay: soluble on expression in E. coli; label from the status in PepcDB or PDB records
readout: soluble on expression in E. coli

MGSDKIHHHHHHAQQSSGDYYEGLSRKIGFSQMIPPHGLEITYDKTVHIIFPSPVRYVDLGSPNLIAGKADGAENVIRVKATRKHFRSETNMSVITEDGNFYTFNVKYADEPLLLNVEMCDFIHDGESVNHPNNAMEIYLQELAGESPRLVRLIMKSVYMQDKRKVKHVGSKRFGVQYLLKGLYAHGELLYFHTEVKNATHVPFDVDFVTFKIVDKKIVKRTAMQEQVIYPLRAFNYVTRVDGKKNERTVFALPKFTIPDGKKLVVEMYEKQGGRHQSFEVENEDLVRAGTVNELKVR
not soluble
MLQPILSISGKSGLFRLVSRGKNTLIVEALDTKRRTPTYPSDRVVSLGDISIYTIEDDVPLPEVMETIYRKNEGKQLDAPALTKDNDSLRAFFGEVLPEYDVDRVYPSDIRKIISWYNLLVDNGFTTFLSDKKPAEEETTEKE
not soluble

These entries and their values trace back to the DeepSol protein solubility set.
